Subject of test: GABA-A receptor; anion channel
Method description: Binding affinity against benzodiazepine site of gamma-aminobutyric-acid A receptor of rat cerebral cortex by using [3H]flunitrazepam in the presence of GABA 1 mM.
Format: tissue-based
Measurement label: IC50 (nM)
Reply numerically in nM, unit not repeated.

Observed IC50 on GABA-A receptor; anion channel, entry "O=C(NC1CC1)C1=C(O)CCn2c1nc1ccccc12" , equals 18

# value of IC50, GABA-A receptor; anion channel, item "O=C(Nc1ccccc1F)c1c(O)ccn2c1nc1ccccc12" = 0.11

Summary: "CCO/C(O)=C1\C(=O)CCn2c1nc1ccccc12" , GABA-A receptor; anion channel, IC50 = 840

Entry "O=C(Nc1c(F)cccc1F)C1=C(O)CCn2c1nc1ccccc12" : IC50 on GABA-A receptor; anion channel = 1.7

Observed IC50 on GABA-A receptor; anion channel, entry "CCN1C2=C(C(=O)Nc3ccccc3)C(=O)CCN2c2ccccc21" , equals 1.4

The value of IC50 recorded for "O=C(Nc1ccccc1)c1c(O)ccn2c1nc1ccccc12" when tested on GABA-A receptor; anion channel reads 14

Summary: "CN1C2=C(C(=O)Nc3ccccc3F)C(=O)CCN2c2ccccc21" , GABA-A receptor; anion channel, IC50 = 0.26

// molecule "O=C(Nc1ccc(Cl)cc1)C1=C(O)CCn2c1nc1ccccc12" , assay GABA-A receptor; anion channel, IC50 value: 265

Record "COc1cccc(NC(=O)C2=C(O)CCn3c2nc2ccccc23)c1" ; system GABA-A receptor; anion channel; IC50 = 16

For the molecule "O=C1CCN2C(=C1C(=O)Nc1ccccc1)Nc1ccccc12" , the measured IC50 on GABA-A receptor; anion channel was 5.9

Note to self: IC50 of "OC1=C(/C(S)=N/c2ccccc2)c2nc3ccccc3n2CC1" with GABA-A receptor; anion channel was 320

GET /values?item= "COc1ccccc1NC(=O)C1=C(O)CCn2c1nc1ccccc12" &system= GABA-A receptor; anion channel returns IC50: 940

Value (IC50, GABA-A receptor; anion channel) for record "O=C(Nc1c(Cl)cccc1Cl)C1=C(O)CCn2c1nc1ccccc12" = 170

Record for "O=C(NC1CCC1)C1=C(O)CCn2c1nc1ccccc12" under target or system GABA-A receptor; anion channel: IC50 reported as 25

Lab note: molecule "O=C(Nc1ccccc1Cl)C1=C(O)CCn2c1nc1ccccc12" tested on GABA-A receptor; anion channel; recorded IC50 was 5.3

Entry "NC(=O)C1=C(O)CCn2c1nc1ccccc12" under GABA-A receptor; anion channel had IC50 of 6000

So the reported IC50 for "O=C(Nc1cccc(Cl)c1)C1=C(O)CCn2c1nc1ccccc12" , on GABA-A receptor; anion channel, turned out to be 95

Record "O=C1CCN2C(=C1C(=O)Nc1ccccc1)N(Cc1ccccc1)c1ccccc12" ; system GABA-A receptor; anion channel; IC50 = 2.7

Record "O=C(NC1CCCCC1)C1=C(O)CCn2c1nc1ccccc12" ; system GABA-A receptor; anion channel; IC50 = 72

Measured IC50 for this entry "O=C(Nc1ccccc1F)C1=C(O)CCn2c1nc1ccccc12" on GABA-A receptor; anion channel: 1.4

Entry "O=C1CCn2c(nc3ccccc32)/C1=C(\O)Oc1ccccc1" , tested on GABA-A receptor; anion channel, has a reported IC50 of 150

// assay GABA-A receptor; anion channel, entry "COc1ccc(NC(=O)C2=C(O)CCn3c2nc2ccccc23)cc1" , IC50 value = 16

GABA-A receptor; anion channel assay, molecule "CN1C2=C(C(=O)Nc3ccccc3)C(=O)CCN2c2ccccc21" , recorded IC50 = 2.1

Form field IC50 for item "O=C1CCn2c(nc3ccccc32)/C1=C(\O)Sc1ccccc1" on GABA-A receptor; anion channel: 26
